assay: self-splicing fitness, log relative to wild type (ln ratio); higher = more splicing; Tetrahymena group I intron in knt gene, E. coli kanamycin selection, DiMSum; sequences stand for … in CUCUCU…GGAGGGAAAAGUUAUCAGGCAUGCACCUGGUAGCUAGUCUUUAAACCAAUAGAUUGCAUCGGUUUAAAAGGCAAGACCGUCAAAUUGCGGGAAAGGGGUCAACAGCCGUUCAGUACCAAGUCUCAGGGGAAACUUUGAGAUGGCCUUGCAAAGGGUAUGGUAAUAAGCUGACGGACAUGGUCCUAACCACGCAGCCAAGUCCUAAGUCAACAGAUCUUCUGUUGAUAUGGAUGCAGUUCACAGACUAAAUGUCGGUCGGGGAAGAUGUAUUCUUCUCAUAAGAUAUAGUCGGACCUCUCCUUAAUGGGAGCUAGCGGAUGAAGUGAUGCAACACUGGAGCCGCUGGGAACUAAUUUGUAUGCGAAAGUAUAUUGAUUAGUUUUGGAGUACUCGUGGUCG; details: 37 °C;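 note: selection with 25 µg/mL kanamycin versus none on LB agar overnight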
We'd kindly ask you to apply these self-splicing fitness (ln) classes: interval 1 = under -2, interval 2 = from -2 up to -0.5, interval 3 = -0.5 and over

| SEQUENCE_STRING | CAT |
| --- | --- |
| GAGUAGCAAUAUUACGGCCG | interval 3 |
| UUACAGCAAUAUUACGAAUU | interval 1 |
| AUUCAGCAAUAUUACGUGGU | interval 2 |
| CAGGAGCAAUAUUACGUAAA | interval 2 |
| CCUAAGCAAUAUUACGGGGG | interval 1 |
| AGCGAGCAAUAUUACGGUAA | interval 1 |
| CGUAAGCAAUAUUACGUCCG | interval 2 |
| UCUAAGCAAUAUUACGUAGU | interval 3 |
| GUGAAGCAAUAUUACGAAAG | interval 2 |
| CGUUAGCAAUAUUACGCUAA | interval 3 |
| UCGUAGCAAUAUUACGCAGU | interval 1 |
| CGAAAGCAAUAUUACGCGCC | interval 3 |
| GACGAGCAAUAUUACGGAUA | interval 1 |
| GACCAGCAAUAUUACGCCGA | interval 3 |
| ACGUAGCAAUAUUACGGUUA | interval 3 |
| CCCUAGCAAUAUUACGAUAU | interval 1 |
| CGACAGCAAUAUUACGUCCU | interval 3 |
| GCAAAGCAAUAUUACGCCAG | interval 1 |
| AGUGAGCAAUAUUACGUUAU | interval 1 |
| AUCGAGCAAUAUUACGCGCA | interval 3 |
| UGAUAGCAAUAUUACGCCAU | interval 1 |
| GAUAAGCAAUAUUACGCAUA | interval 2 |
| CCAGAGCAAUAUUACGUGAG | interval 3 |
| CAAAAGCAAUAUUACGACUA | interval 2 |
| UGUAAGCAAUAUUACGUAGG | interval 2 |
| AAUCAGCAAUAUUACGAUUA | interval 3 |
| CUUAAGCAAUAUUACGCUUA | interval 2 |
| CCGAAGCAAUAUUACGUGCG | interval 2 |
| GCUAAGCAAUAUUACGUAAU | interval 3 |
| UGGGAGCAAUAUUACGCAGC | interval 1 |
| CGUCAGCAAUAUUACGUUAU | interval 1 |
| UACCAGCAAUAUUACGGAUA | interval 3 |

// data source = the supplement of paper PMC7877785
